Target: PARP1 (Homo sapiens)
Experiment: Inhibition of PARP1 enzyme activity (ELISA, chemiluminescence)
Format: biochemical
Conditions: ratio of PARP2 IC50 to PARP1 IC50
endpoint: Selectivity PARP2/PARP1

>  <test smiles>
CNC(=O)c1ccc(N2CCN(Cc3cc(-c4ccc(OC)cc4)c4nc(C)c(=O)[nH]c4c3)CC2)c(F)n1

>  <experimental result>
2751.7

$$$$
>  <test smiles>
CNC(=O)c1ccc(N2CCN(Cc3cc(OC(F)F)c4nc(C5CC5)c(=O)[nH]c4c3)CC2)c(F)n1

>  <experimental result>
26.7

$$$$

P. Cc1nc2c(OC(F)F)cc(CN3CC=C(c4ccc(C(=O)NC5CC5)nc4F)CC3)cc2[nH]c1=O
Q. CCONC(=O)c1ccc(N2CCN(Cc3cc(OC(F)F)c4nc(C)c(=O)[nH]c4c3)CC2)c(F)n1
Lower value for measured Selectivity PARP2/PARP1? Options: P , Q Select an item and report its label.
Q

====

Test: in vivo
Conditions: SD, rat, po, 5 mg/kg
endpoint: AUC(0-t) (ng·h/mL)
# unit: ng·h/mL | format: bare number

Noted for "CC#Cc1cc(CN2CC=C(c3ccc(C(=O)NC)nc3F)CC2)cc2[nH]c(=O)c(C)nc12" : its AUC(0-t) reads 3770

====

Target: PARP1 (Homo sapiens, UniProt P09874)
Sequence (P09874 whole entry): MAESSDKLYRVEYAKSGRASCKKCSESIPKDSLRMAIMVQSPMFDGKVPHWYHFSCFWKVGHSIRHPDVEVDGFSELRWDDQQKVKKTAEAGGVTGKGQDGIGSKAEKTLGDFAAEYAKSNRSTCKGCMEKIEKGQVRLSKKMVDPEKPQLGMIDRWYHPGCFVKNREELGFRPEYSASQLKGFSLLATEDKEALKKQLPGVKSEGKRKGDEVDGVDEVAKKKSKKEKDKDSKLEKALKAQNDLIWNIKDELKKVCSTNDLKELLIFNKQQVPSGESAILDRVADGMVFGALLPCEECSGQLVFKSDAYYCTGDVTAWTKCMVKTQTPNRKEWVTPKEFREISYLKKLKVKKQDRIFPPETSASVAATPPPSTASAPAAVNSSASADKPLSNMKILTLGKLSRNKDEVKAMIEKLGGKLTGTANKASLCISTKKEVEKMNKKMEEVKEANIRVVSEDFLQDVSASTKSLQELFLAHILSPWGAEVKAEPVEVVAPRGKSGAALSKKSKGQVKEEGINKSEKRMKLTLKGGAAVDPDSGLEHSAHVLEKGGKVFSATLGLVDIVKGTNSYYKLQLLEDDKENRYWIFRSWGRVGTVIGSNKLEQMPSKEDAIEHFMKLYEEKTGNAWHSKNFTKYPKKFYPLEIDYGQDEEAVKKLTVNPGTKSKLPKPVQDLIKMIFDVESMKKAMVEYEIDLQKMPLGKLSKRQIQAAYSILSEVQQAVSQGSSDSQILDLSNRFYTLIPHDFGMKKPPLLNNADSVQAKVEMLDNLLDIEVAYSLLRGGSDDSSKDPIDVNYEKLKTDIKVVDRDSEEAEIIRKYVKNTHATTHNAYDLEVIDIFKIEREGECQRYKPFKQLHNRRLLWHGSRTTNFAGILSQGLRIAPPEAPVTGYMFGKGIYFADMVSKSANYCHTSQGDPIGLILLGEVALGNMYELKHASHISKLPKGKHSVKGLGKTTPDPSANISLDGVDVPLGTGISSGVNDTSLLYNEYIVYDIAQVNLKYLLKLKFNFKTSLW
Test: Inhibition of PARP1 enzyme activity (ELISA, chemiluminescence)
Type: biochemical
Details: ELISA, histone-coated plate, NAD+, 60 min at 25 °C
endpoint: IC50 (nM)

// below: answered molecules
>  <test smiles>
CC#Cc1cc(CN2CCN3c4ccc(C(=O)NC)nc4COC[C@H]3C2)cc2[nH]c(=O)c(C)nc12

>  <IC50 (nM)>
3.2

$$$$
>  <test smiles>
CNC(=O)c1ccc(N2CCN(Cc3cc(Oc4ccccc4)c4nc(C)c(=O)[nH]c4c3)CC2)c(F)n1

>  <IC50 (nM)>
1.84

$$$$
>  <test smiles>
Cc1nc2c(OC(F)F)cc(CN3CCN(c4ccc(C(=O)NC5CC5)nc4F)CC3)cc2[nH]c1=O

>  <IC50 (nM)>
2.5

$$$$
>  <test smiles>
CCONC(=O)c1ccc(N2CCN(Cc3cc(OC(F)F)c4nc(C)c(=O)[nH]c4c3)CC2)c(F)n1

>  <IC50 (nM)>
1.9

$$$$

P. CNC(=O)c1ccc(N2CCN(Cc3cc(OC(F)F)c4nc(C5CC5)c(=O)[nH]c4c3)CC2)c(F)n1
Q. CC#Cc1cc(CN2CCN(c3ccc(C(=O)NC4CC4)nc3F)CC2)cc2[nH]c(=O)c(C)nc12
R. CC#Cc1cc(CN2CC=C(c3ccc(C(=O)NC4CC4)nc3F)CC2)c(F)c2[nH]c(=O)c(C)nc12
Arrange by IC50, high to low. Answer by listing the labels in the requested order.
P, R, Q
(P: 7.6 nM, R: 3.1 nM, Q: 2 nM)

====

// pIC50 collected for PARP2 (Homo sapiens)
When answering, recall that pIC50 equals minus log10 of the concentration in mol/L, and write that number alone.

>  <molecule>
CNC(=O)c1ccc(N2CCN(Cc3cc(C4CC4)c4nc(C)c(=O)[nH]c4c3F)CC2)c(F)n1 [Example 19]

>  <assay system>
PARP2 (Homo sapiens)
Sequence (Q9UGN5 whole entry): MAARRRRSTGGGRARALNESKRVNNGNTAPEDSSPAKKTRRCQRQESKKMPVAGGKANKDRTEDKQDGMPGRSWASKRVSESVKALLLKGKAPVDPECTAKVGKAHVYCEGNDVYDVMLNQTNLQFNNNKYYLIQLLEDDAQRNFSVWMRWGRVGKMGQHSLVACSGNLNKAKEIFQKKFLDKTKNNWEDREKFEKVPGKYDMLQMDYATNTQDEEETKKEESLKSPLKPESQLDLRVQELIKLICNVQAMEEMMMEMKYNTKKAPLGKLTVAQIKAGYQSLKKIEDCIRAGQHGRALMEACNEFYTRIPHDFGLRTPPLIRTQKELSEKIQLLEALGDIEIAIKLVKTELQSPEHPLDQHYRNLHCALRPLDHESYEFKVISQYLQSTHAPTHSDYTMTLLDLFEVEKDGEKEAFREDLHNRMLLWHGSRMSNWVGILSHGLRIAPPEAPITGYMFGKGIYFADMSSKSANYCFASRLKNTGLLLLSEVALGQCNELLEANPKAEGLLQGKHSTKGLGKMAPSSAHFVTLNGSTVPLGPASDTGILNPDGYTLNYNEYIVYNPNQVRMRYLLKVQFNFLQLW

>  <pIC50>
7.15

$$$$
>  <molecule>
CC#Cc1cc(CN2CC=C(c3ccc(C(=O)NC)nc3)CC2)cc2[nH]c(=O)c(C)nc12 [Example 51]

>  <assay system>
PARP2 (Homo sapiens);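 further: PARP2 enzyme ELISA on histone-coated plates, Strep-HRP detection with chemiluminescence read-out, 10 min compound preincubation with enzyme, inhibition scaled between Max and Min signal controls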

>  <pIC50>
5.85

$$$$

Now take the following molecule into account.
// assay PARP2 (Homo sapiens), entry CNC(=O)c1ccc(C2=CCN(Cc3cc(OC(F)F)c4nc(C)c(=O)[nH]c4c3)CC2)c(C)n1 [Example 58] , pIC50 value = 5.61
